biological target: EaAmsI (AmsI, Low Molecular Weight Protein Tyrosine Phosphatase) (Erwinia amylovora, UniProt Q46630); construct: recombinant EaAmsI (gene from strain Ea273, pETM-11 vector); assay: pNPP hydrolysis at […] nm, Michaelis-Menten global fit with competitive inhibition model
Sequence (Q46630 whole entry): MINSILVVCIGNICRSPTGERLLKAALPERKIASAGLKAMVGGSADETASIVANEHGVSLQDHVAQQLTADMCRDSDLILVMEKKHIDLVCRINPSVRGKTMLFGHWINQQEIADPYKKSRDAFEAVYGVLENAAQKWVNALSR
quantity.measured: pKi
Scale: pKi equals -log10([C]), with [C] in mol/L.

Data request: Field request: pKi | item: CCCCCCCO[C@@H]1O[C@H](CO)[C@@H](O)[C@H](O)[C@H]1O
Data returned: 5.11

* * *

target: EaAmsI (AmsI, Low Molecular Weight Protein Tyrosine Phosphatase) (Erwinia amylovora, UniProt Q46630); construct: recombinant EaAmsI (gene from strain Ea273, pETM-11 vector); experiment: pNPP hydrolysis, dose-response IC50
quantity.measured: pIC50
Scale: pIC50 equals -log10([C]), with [C] in mol/L.

Data request: Field request: pIC50 | item: CCCCCCCCO[C@@H]1O[C@H](CO)[C@@H](O)[C@H](O)[C@H]1O
Data returned: 2.02
